- protocolSummary: AUC in CD1 mouse at 237 umol/kg, ip
- Assay type: ADME, organism-based
- conditionSummary: plasma
reportedProperty: AUC (µM·h)
Express your answer in µM·h, writing the number without its unit.

## Input AUC lookup needed for `Cc1ccc2c(c1)[n+]([O-])c(NCCN1CCCCC1)n[n+]2[O-]` , thanks.
## Output 13.8

## Input Please answer likewise for `CCOc1ccc2c(c1)[n+]([O-])c(NCCN1CCCCC1)n[n+]2[O-]`
## Output 10.7

---

Could you please report measured log10 solubility for the items listed next?
- protocolSummary: Solubility in culture medium in presence of 5% fetal calf serum
- Type: physicochemical
- conditionSummary: culture medium with 5% fetal calf serum
Values are log10 of solubility in mM.

## Input For the compound shown here, `CN(C)CCNc1n[n+]([O-])c2ccc(C(C)(C)C)cc2[n+]1[O-]` , give the reported log10 solubility.
## Output 1.58

## Input Try this compound next: `CC(C)c1ccc2c(c1)[n+]([O-])c(NCCN(C)C)n[n+]2[O-]`
## Output 1.62

## Input Also Cc1ccc2c(c1)[n+]([O-])c(NCCN1C(C)CCCC1C)n[n+]2[O-] (configuration not stated) ?
## Output 1.68

## Input Please answer likewise for `Cc1ccc2c(c1)[n+]([O-])c(N)n[n+]2[O-]`
## Output 0.48

## Input Repeat for the following compound: `[O-][n+]1nc(NCCN2CCCC2)[n+]([O-])c2ccccc21`
## Output 1.79

## Input Now this one: `CCc1ccc2c(c1)[n+]([O-])c(NCCN1CCCCC1)n[n+]2[O-]`
## Output 1.59

## Input Thanks! And `COc1ccc2c(c1)[n+]([O-])c(NCCN1CCOCC1)n[n+]2[O-]` ?
## Output 1.68

## Input Another compound: `CC(C)c1ccc2c(c1)[n+]([O-])c(NCCN1CCOCC1)n[n+]2[O-]`
## Output 1.48

## Input Entry `CN(C)CCCNc1n[n+]([O-])c2ccccc2[n+]1[O-]` please
## Output 1.58

## Input Another compound to check: `CCCN(CCC)CCNc1n[n+]([O-])c2ccc(C(C)(C)C)cc2[n+]1[O-]`
## Output 1.51

## Input Here is the next compound: `CCCN(CCC)CCNc1n[n+]([O-])c2ccc(C(C)C)cc2[n+]1[O-]`
## Output 1.59

## Input Moving on to the next compound: `CCCN(CCC)CCNc1n[n+]([O-])c2ccc(C)cc2[n+]1[O-]`
## Output 1.58
